For each entry below, report its pKd value.
- Experimental system: B. malayi iPGM (Brugia malayi, UniProt Q4VWF8)
- Sequence (Q4VWF8 whole entry): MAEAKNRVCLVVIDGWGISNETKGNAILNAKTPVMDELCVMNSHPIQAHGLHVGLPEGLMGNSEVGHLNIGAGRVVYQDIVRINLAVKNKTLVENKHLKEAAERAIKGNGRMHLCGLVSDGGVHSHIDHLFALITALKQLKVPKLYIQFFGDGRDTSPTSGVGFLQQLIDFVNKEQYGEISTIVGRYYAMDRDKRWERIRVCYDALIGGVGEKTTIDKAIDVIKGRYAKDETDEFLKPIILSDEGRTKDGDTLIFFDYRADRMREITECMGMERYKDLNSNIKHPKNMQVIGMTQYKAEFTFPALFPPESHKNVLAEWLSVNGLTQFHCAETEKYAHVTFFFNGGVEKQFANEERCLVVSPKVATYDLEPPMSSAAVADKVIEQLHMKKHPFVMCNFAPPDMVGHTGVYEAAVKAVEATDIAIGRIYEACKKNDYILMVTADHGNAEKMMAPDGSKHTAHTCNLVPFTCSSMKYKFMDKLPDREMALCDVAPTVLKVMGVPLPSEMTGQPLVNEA
- Method summary: biochemical
- Format: binding
- Details: KD, Supplementary Table 5, SPR, B.m. iPGM; unit inferred
Bridge positions count the residues as written; N and C are the ends. Square brackets hold non-standard residues; d marks the D form. Peptide text beside a SMILES is read from it. Nva = CCC[C@H](N)C(=O)O
Numbers only, as −log10 of the molar value.

The following molecules have reported results that may help.
CCC[C@@H]1NC(=O)[C@@H](Cc2ccc(O)cc2)NC(=O)CSC[C@@H](C(=O)N[C@@H](Cc2ccc(O)cc2)C(=O)N[C@@H](CC(C)C)C(=O)N[C@@H](Cc2ccc(O)cc2)C(=O)NCC(=O)N[C@H](C(=O)N[C@@H](CS)C(N)=O)[C@@H](C)O)NC(=O)[C@H](Cc2ccc(O)cc2)NC(=O)[C@H](CC(=O)O)NC(=O)CNC(=O)[C@@H]2CCCN2C(=O)[C@H](Cc2ccc(O)cc2)NC1=O [Ce-2 D2Nva] ({CH2CO}-[dY][Nva]YPGDYCYLYGTC-NH2; thioether N-8) = 9.42
CC(C)C[C@H](NC(=O)[C@H](Cc1ccc(O)cc1)NC(=O)[C@@H]1CSCC(=O)N[C@H](Cc2ccc(O)cc2)C(=O)N[C@@H](CC(=O)O)C(=O)N[C@@H](Cc2ccc(O)cc2)C(=O)N2CCC[C@H]2C(=O)NCC(=O)N[C@@H](CC(=O)O)C(=O)N[C@@H](Cc2ccc(O)cc2)C(=O)N1)C(=O)N[C@@H](Cc1ccc(O)cc1)C(=O)NCC(=O)N[C@H](C(=O)N[C@@H](CS)C(N)=O)[C@@H](C)O = 9.33
CC(C)C[C@H](NC(=O)[C@H](Cc1ccc(O)cc1)NC(=O)[C@@H]1CSCC(=O)N[C@H](Cc2ccc(O)cc2)C(=O)N[C@@H](CC(=O)O)C(=O)N[C@@H](Cc2ccc(O)cc2)C(=O)N2CCC[C@H]2C(=O)NCC(=O)N[C@@H](CC(=O)O)C(=O)N[C@@H](Cc2ccc(O)cc2)C(=O)N1)C(=O)N[C@@H](Cc1ccc(O)cc1)C(=O)NCC(=O)N[C@@H](Cc1c[nH]cn1)C(=O)N[C@@H](CS)C(N)=O [Ce-2 T13H] = 9.26

Query: Please indicate pKd recorded for CC(C)C[C@H](NC(=O)[C@H](Cc1ccc(O)cc1)NC(=O)[C@@H]1CSCC(=O)N[C@H](Cc2ccc(O)cc2)C(=O)N[C@@H](CC(=O)O)C(=O)N[C@@H](Cc2ccc(O)cc2)C(=O)N2CCC[C@H]2C(=O)NCC(=O)N[C@@H](CC(=O)O)C(=O)N[C@@H](Cc2ccc(O)cc2)C(=O)N1)C(=O)N[C@@H](Cc1ccc(O)cc1)C(=O)NCC(=O)NCC(=O)NO [Ce-2 T13G, C14NHOH]
Reply: 6.61

* * *

- Experimental system: B. malayi iPGM (Brugia malayi)
- Method summary: biochemical
- Assay type: binding
Bridge positions count the residues as written; N and C are the ends. Square brackets hold non-standard residues; d marks the D form. Peptide text beside a SMILES is read from it. Nva = CCC[C@H](N)C(=O)O
For each entry below, report its kon value.
Answers are plain numbers, in M⁻¹ s⁻¹.

CCC[C@@H]1NC(=O)[C@@H](Cc2ccc(O)cc2)NC(=O)CSC[C@@H](C(=O)N[C@@H](Cc2ccc(O)cc2)C(=O)N[C@@H](CC(C)C)C(=O)N[C@@H](Cc2ccc(O)cc2)C(=O)NCC(=O)N[C@H](C(=O)N[C@@H](CS)C(N)=O)[C@@H](C)O)NC(=O)[C@H](Cc2ccc(O)cc2)NC(=O)[C@H](CC(=O)O)NC(=O)CNC(=O)[C@@H]2CCCN2C(=O)[C@H](Cc2ccc(O)cc2)NC1=O [Ce-2 D2Nva] ({CH2CO}-[dY][Nva]YPGDYCYLYGTC-NH2; thioether N-8) = 376000

With those in mind, consider the next compound.
Query: Please indicate kon recorded for CC(C)C[C@H](NC(=O)[C@H](Cc1ccc(O)cc1)NC(=O)[C@@H]1CSCC(=O)N[C@H](Cc2ccc(O)cc2)C(=O)N[C@@H](CC(=O)O)C(=O)N[C@@H](Cc2ccc(O)cc2)C(=O)N2CCC[C@H]2C(=O)NCC(=O)N[C@@H](CC(=O)O)C(=O)N[C@@H](Cc2ccc(O)cc2)C(=O)N1)C(=O)N[C@@H](Cc1ccc(O)cc1)C(=O)NCC(=O)NCC(=O)NO [Ce-2 T13G, C14NHOH]
Reply: 110000
